Test system: E. coli TESEC Mtb Alr
Method summary: growth (OD600 after 10 h); higher = more growth (less inhibition)
Settings: arabinose 100 nM; compound 0.1 mM; raw OD600 reference: median of DMSO wells 0.413, cell-free background 0.052
Counter-ions that a name gives are not always drawn.
If the reported growth equals or exceeds 0.4, assign Criterion met. If not, assign Criterion not met.

Example cases with answers are listed next.
1) CC(C(=O)O)c1ccc(-c2ccccc2)c(F)c1 (stereo not drawn) [Flurbiprofen]: Criterion not met
2) Cc1ccc(C(=O)c2cc(O)c(O)c([N+](=O)[O-])c2)cc1 [Tolcapone]: Criterion not met
3) CC(=O)O[C@H]1C(=O)[C@@]2(C)[C@H]([C@H](OC(=O)c3ccccc3)[C@]3(O)C[C@H](OC(=O)[C@H](O)[C@@H](NC(=O)c4ccccc4)c4ccccc4)C(C)=C1C3(C)C)[C@]1(OC(C)=O)CO[C@@H]1C[C@@H]2O [Paclitaxel]: Criterion met
4) CO[C@H]1/C=C/O[C@@]2(C)Oc3c(C)c(O)c4c(O)c(c(/C=N/N5CCN(C)CC5)c(O)c4c3C2=O)NC(=O)/C(C)=C\C=C\[C@H](C)[C@H](O)[C@@H](C)[C@@H](O)[C@@H](C)[C@H](OC(C)=O)[C@@H]1C [Rifampicin]: Criterion not met

Given the entry C[C@]12C=CC(=O)C=C1CC[C@@H]1[C@@H]2[C@@H](O)C[C@@]2(C)[C@H]1CC[C@]2(O)C(=O)CO [Prednisolone] , answer whether its growth meets or surpasses 0.4.
Criterion met

Has c1ccc(-c2ccc(C(c3ccccc3)n3ccnc3)cc2)cc1 (stereo not drawn) [Bifonazole] a recorded growth greater than or equal to 0.4?
Criterion not met

Quick check, growth >= 0.4? Cc1nccn1CC1CCc2c(c3ccccc3n2C)C1=O (stereo not drawn) [Ondansetron Hydrochloride]
Criterion not met

* * *

We begin with a simple list: items and their reported growth.
System: E. coli TESEC Mtb DapB
Method summary: growth (OD600 after 10 h); higher = more growth (less inhibition)
Settings: arabinose induction (level): Low; compound 0.1 mM; raw OD600 reference: median of DMSO wells 0.227, cell-free background 0.041
Structures can show the parent of a compound that is named as a salt.
Could you respond with only the numeric value?

1) CN(Cc1cnc2nc(N)nc(N)c2n1)c1ccc(C(=O)N[C@@H](CCC(=O)O)C(=O)O)cc1 [Methotrexate]: 0.254
2) CN1CCC(OC(c2ccccc2)c2ccccc2)CC1 [Diphenylpyraline hydrochloride]: 0.246
3) NC[C@H]1O[C@H](O[C@H]2[C@H](O[C@@H]3O[C@H](CO)[C@@H](O)[C@H]3O)[C@@H](O)[C@H](N)C[C@@H]2N)[C@H](N)[C@@H](O)[C@@H]1O [Ribostamycin sulfate salt]: 0.226
4) O=C1C(=O)c2ccccc2C(O)=C1C1CCC(c2ccc(Cl)cc2)CC1 (configuration not stated): 0.204

For E. coli TESEC Mtb DapB, provide growth of NC(=O)c1cc[n+](CC2=C(C(=O)[O-])N3C(=O)[C@@H](NC(=O)[C@@H](c4ccccc4)S(=O)(=O)O)[C@H]3SC2)cc1 [Cefsulodin sodium salt] please.
0.245

What growth appears in the records for this compound with E. coli TESEC Mtb DapB? Cn1c([N+](=O)[O-])cnc1COC(N)=O
0.253

Hello, I am looking for reported growth with E. coli TESEC Mtb DapB for CC(=O)NCCCS(=O)(=O)O [Acamprosate calcium] . Could you help?
0.229

* * *

Tested on: E. coli TESEC Mtb Alr
Method summary: growth (OD600 after 10 h); higher = more growth (less inhibition)
Settings: arabinose 1000 nM; compound 0.1 mM; raw OD600 reference: median of DMSO wells 0.294, cell-free background 0.041
Structures can show the parent of a compound that is named as a salt.
Known growth of a selection of compounds
Answer using only a numeral; do not append any unit.

Previously resolved entries follow.
1) CC(C(=O)O)c1cccc(Oc2ccccc2)c1 (centres undefined) [Fenoprofen calcium salt dihydrate]: 0.267
2) CCN(CC)CCOC(=O)C(Cc1cccc2ccccc12)CC1CCCO1 (centres undefined) [Nafronyl oxalate]: 0.219
3) C=CCSCC1Nc2cc(Cl)c(S(N)(=O)=O)cc2S(=O)(=O)N1 (centres undefined) [Althiazide]: 0.301
4) CCCCC(=O)O[C@H]1CC[C@H]2[C@@H]3CCc4cc(O)ccc4[C@H]3CC[C@]12C [Estradiol Valerate]: 0.307
5) C[C@](N)(Cc1ccc(O)c(O)c1)C(=O)O: 0.298

Which growth is listed for CC1(C)S[C@@H]2[C@H](NC(=O)[C@H](N)c3ccc(O)cc3)C(=O)N2[C@H]1C(=O)O ?
0.297

May I ask what growth has been recorded for Nc1nc(=O)c2nc(CNc3ccc(C(=O)N[C@@H](CCC(=O)O)C(=O)O)cc3)cnc2[nH]1 ?
0.306

Can you look up the measured growth of O=C(CCCN1CCC(O)(c2ccc(Br)cc2)CC1)c1ccc(F)cc1 for me?
0.287

Fill in the blank: the reported growth of CNC(C)CCC=C(C)C (centres undefined) [Isometheptene mucate] is ____.
0.314

* * *

Tested on: E. coli TESEC Mtb Alr
Method summary: growth (OD600 after 10 h); higher = more growth (less inhibition)
Settings: arabinose 1000 nM; compound 0.1 mM; raw OD600 reference: median of DMSO wells 0.294, cell-free background 0.041
Where a name gives a salt, the structure may show the parent alone.
Known growth of a selection of compounds
Reply briefly: the number, and no unit.

// below: answered compounds
1) CC(=O)O[C@]1(C(C)=O)CC[C@H]2[C@@H]3C=C(C)C4=CC(=O)CC[C@]4(C)[C@H]3CC[C@@]21C [Megestrol acetate]: 0.285
2) CCCOc1ccc2[nH]c(NC(=O)OC)nc2c1: 0.309

Any idea what its growth is? The compound is CN1C(C(=O)Nc2ccccn2)=C(O)c2ccccc2S1(=O)=O
0.229

What measured growth goes with CN1CCCC(n2nc(Cc3ccc(Cl)cc3)c3ccccc3c2=O)CC1 (centres undefined) [Azelastine HCl] ?
0.19

* * *

The following compounds are listed with their measured growth values.
Tested on: E. coli TESEC Mtb Alr
Method summary: growth (OD600 after 10 h); higher = more growth (less inhibition)
Settings: arabinose 10000000 nM; compound 0.1 mM; raw OD600 reference: median of DMSO wells 0.146, cell-free background 0.041
Structures can show the parent of a compound that is named as a salt.
Answer with the value's number alone.

1) Cc1[nH]c(=O)c(C#N)cc1-c1ccncc1 [Milrinone]: 0.148
2) NC(=O)c1ccc[n+]([C@@H]2O[C@H](COP(=O)([O-])OP(=O)(O)OC[C@H]3O[C@@H](n4cnc5c(N)ncnc54)[C@H](O)[C@@H]3O)[C@@H](O)[C@H]2O)c1 [Nadide]: 0.175
3) CC=CC1=C(C(=O)O)N2C(=O)[C@@H](NC(=O)[C@H](N)c3ccc(O)cc3)[C@H]2SC1 [Cefprozil]: 0.163
4) O=C1[C@H]2CCCC[C@H]2C(=O)N1CCCCN1CCN(c2nsc3ccccc23)CC1 [Perospirone]: 0.142
5) Clc1ccc(COC(Cn2ccnc2)c2ccc(Cl)cc2Cl)cc1 (centres undefined) [Econazole nitrate]: 0.0483
6) NCCc1cc[nH]n1 [Betazole hydrochloride]: 0.14

Find growth (E. coli TESEC Mtb Alr) for the entry CO/N=C(\C(=O)N[C@@H]1C(=O)N2C(C(=O)O)=C(COC(C)=O)CS[C@H]12)c1csc(N)n1 [Cefotaxime sodium salt]
0.0401

growth of CCN(CC)CCOC(=O)C1(C2CCCCC2)CCCCC1 [Dicyclomine hydrochloride] on E. coli TESEC Mtb Alr?
0.103

E. coli TESEC Mtb Alr / growth / NCCc1c[nH]cn1 [Histamine dihydrochloride] : value?
0.139

What reported growth corresponds to CN1CCN(C2=Nc3ccccc3Oc3ccc(Cl)cc32)CC1 [Loxapine succinate] on E. coli TESEC Mtb Alr?
0.158

For E. coli TESEC Mtb Alr, provide growth of CN(C)CCn1nnnc1SCC1=C(C(=O)O)N2C(=O)[C@@H](NC(=O)Cc3csc(N)n3)[C@H]2SC1 [Cefotiam hydrochloride] please.
0.0878

GET /values?readout=growth&system=E. coli TESEC Mtb Alr&item= Nc1ccc(S(=O)(=O)c2ccc(N)cc2)cc1 [Dapsone]
0.141

Hello, I am looking for reported growth with E. coli TESEC Mtb Alr for CC[C@H]1OC(=O)[C@H](C)[C@@H](O[C@H]2C[C@@](C)(OC)[C@@H](O)[C@H](C)O2)[C@H](C)[C@@H](O[C@@H]2O[C@H](C)C[C@H](N(C)C)[C@H]2O)[C@](C)(O)C[C@@H](C)C(=O)[C@H](C)[C@@H](O)[C@]1(C)O [Erythromycin] . Could you help?
0.0414

Taken from the supplement of paper PMC9262897.
